Source of measurements: patent US12605377B2

- test-name: clinical pharmacokinetics
- recorded-conditions: human, in vivo, across all doses, estimated, read-out: mean half-life (t½) (converted)
quantity-name: half-life

{"molecule": "CN(C(=O)c1ccc(F)cc1C(F)(F)F)C1CCN(c2nnc(-c3ccnn3C)c3ccccc23)CC1 [taladegib]", "quantity-name": "half-life", "observed-value": "~16 h"}

* * *

- test-name: clinical pharmacokinetics
- recorded-conditions: human, in vivo, read-out: median tmax
quantity-name: Tmax (h)

{"compound": "CN(C(=O)c1ccc(F)cc1C(F)(F)F)C1CCN(c2nnc(-c3ccnn3C)c3ccccc23)CC1 [taladegib]", "observed-value": 2}

* * *

- test-name: oral bioavailability
- recorded-conditions: in vivo
- From the text: This molecule has been in over 192 human subjects and developed initially with the intention of treating oncologic indications with a focus on lung cancer and basal cell carcinoma (BCC). Although primarily cancer patients, these studies allowed for a preliminary understanding of dose and tolerability.
quantity-name: bioavailability

{"smiles-representation": "CN(C(=O)c1ccc(F)cc1C(F)(F)F)C1CCN(c2nnc(-c3ccnn3C)c3ccccc23)CC1", "quantity-name": "bioavailability", "observed-value": "72 to 91%"}
